- testSummary: label from the status in PepcDB records
parameter: protein production

seq=MSPSCPMCTKWLDEPEFRIAELEHTRVMLNRDQFFPGYTFVFTREHVTELFHLSPPVRQGVMEEVTAVAAALYDLFQPAKMNYELLGNMVPHMHWHLVPRFATDPLWPRPIWSEPHAETLLAPEEYAGRIALIRDRLGL parameter="protein production" obsvalue=failed
seq=MIKPELPSNEAERLAALRQYDVLDSPAERAFDDLTMIASTLCETQMAAVVLVDEDRQWFKSAHGAPRSEAPRDISFCAHAILRPDEVLMVDDTLLDPRFHDNPMVVGSGGVRFYAGAPLVTSQGMALGSLCVFDQAPAHLREDQREALQALSRQASQLLELRLAGRQLRQQLHEREWYEQQMAGYYAQMDALHADLVEQTRTDPLTGLPNRRAFAVALAAATEQTRAVGQPLSVALLDVDHFKTVNDVHGHDQGDAVLRELSTLLRAHMAGAGTIARYGGEEFVLLLPNANLLQARVQCEYLRQSVAAMTIALPVTVSIGVATLYPQESVEAVIKRADQALYAAKRGGRDQVVALE parameter="protein production" obsvalue=failed
seq=MKEDRVVFIFGPTAVGKSNILFHFPKNKAEIINVDSIQVYKEFNIASSKPSKNLMKHIKHHLVDFLDPEKDYTIGIFYEQALKIVKEIRQKKKIPIFVGGTAFYFKHLKDGFPSTPLVTSKIRIYVNNLLELKGKSYLLKELKNVDPIRFNMLNKNDIYRIKRSLEVYYQTGIPISQFQKKQSSEFKNIVIIGLKRSFEDLKTRISIRINEMLNSGLLSEIKGLFSKGYNENTPAFKGIGYNEFLLWKSRPCYGLNDIIGLINKNSFLYAKRQMTFFAKISDVLWLHPEDDLDNILNLIFKVDKEI parameter="protein production" obsvalue=failed
seq=MLRTEHYAFLPCISRALEERDSLGIRRELRARQQRLSMQQSRSKLGRVCVTGANSPLGQELVGALTRTPDPSLRPDAIGVIGARDPIESHSAGAGLHFPGPGVDFLECAATDLEHYNPRTLFSINDDDLGLRRRSIFRENQVVIDLLRAQGETNEPRSKTRLVLVTLLGCGDSEDAIPSQAFDVLRPLLLELSRVEQYVRESGLPYTIVRPGALEHGDADSRAIVSESKVGFGTIHRSTLAHLLLNVAASEKAVNKTLMALDMNRLLVAAPYVRPFEVWESPPFEVFDL parameter="protein production" obsvalue="not failed"
seq=MTGHIDPTKEVFAQFRANDREGPIHMLNLVRLRPRAAYPDGRETTGAEAYAAYGRDSGPVFERLGGKVVWQGQFELMLIGPQDEHWDHVFIAEYPSVAAFVEMIRDPVYREAVKHRQAAVEDSRLIRLKPLKPGKGFGEIPT parameter="protein production" obsvalue="not failed"
seq=MGRVYYGGVERTYLYRGRILNLALEGRYEIVEHKPAVAVIALREGRMLFVRQMRPAVGLAPLEIPAGLIEPGEDPLEAARRELAEETGLSGDLTYLFSYFVSPGFTDEKTHVFLAENLKEVEAHPDEDEAIEVVWMRPEEALERHQRGEVEFSATGLVGVLYYHAFLRGR parameter="protein production" obsvalue="not failed"
